Origin of values: patent US20260258115A1

target: RSV F on RSV subtype A virus (RSV-A2) (Respiratory Syncytial Virus, subtype A, …, UniProt P03420 26-574); assay: cell-based or functional assay

| binder | Neutralization - RSV A2 IC50 (pM) |
| --- | --- |
| ADI-36677 (antibody, V domains shown) VH: QVQLVQSGGGLVQPGGSLRLSCAASGFTFSSYEMNWVRQAPGKGLEWISYISSSGDTKYYADSVKGRFTVSRDNAKYSLYLQMDSLRAEDTAVYYCASLYDSRGYYWVFDYWGQGTLVTVSS VL: DIVMTQSPSSLSASVGDRVTITCQASQDISTYLNWYQHKPGKAPNLLIYDASNLEPGVPSRFSGSGSGTDFTFTISSLQPEDIATYYCLQHDNLPPTFGQGTKVDIK | 144 |
| ADI-41563 (antibody, V domains shown) VH: QVQLVESGPGLVKPSETLSLTCTVSDDSITNNFWTWIRQPPGKGLEWIGYIYYSGSTNYNPSLKSRITMSVDLSKNQFSLKLSSVTAADTAVYYCARLTSGGVDYWGQGTLVTVSS VL: QSVLTQPPSLSGAPGQRVTISCTGSSSNIGADYHVHWYQQLPGTAPKLLIYQNTNRPSGVPDRFSASKSGTSVSLAITGLQAEDEADYYCQSYDSSLSAWVFGGGTKLTVL | 139 |
| ADI-41191 (antibody, V domains shown) VH: QVQLVQSGAEVKRPGASVKVSCKASGYIFSHYGISWVRQAPGQGLEWMAWISAYNGNTNYAQKLQGRVTVTTDTSTSTAYMELRSLRSDDTAVYYCAREPPSLSAAATLDYWGQGTLVTVSS VL: EIVMTQSPLSLPVTLGQPASISCRSNQSLVYSDGNIYLSWFQQRPGQSPRRLIYKVSNRDSGVPDRFSGSGSGTDFTLKISRVEAEDVAVYYCMQVTHWPHEFGQGTKLEIK | 154 |
